experimental_system: Alpha-2C adrenergic receptor (Homo sapiens) (UniProt P18825)
Sequence (P18825 whole entry, looked up): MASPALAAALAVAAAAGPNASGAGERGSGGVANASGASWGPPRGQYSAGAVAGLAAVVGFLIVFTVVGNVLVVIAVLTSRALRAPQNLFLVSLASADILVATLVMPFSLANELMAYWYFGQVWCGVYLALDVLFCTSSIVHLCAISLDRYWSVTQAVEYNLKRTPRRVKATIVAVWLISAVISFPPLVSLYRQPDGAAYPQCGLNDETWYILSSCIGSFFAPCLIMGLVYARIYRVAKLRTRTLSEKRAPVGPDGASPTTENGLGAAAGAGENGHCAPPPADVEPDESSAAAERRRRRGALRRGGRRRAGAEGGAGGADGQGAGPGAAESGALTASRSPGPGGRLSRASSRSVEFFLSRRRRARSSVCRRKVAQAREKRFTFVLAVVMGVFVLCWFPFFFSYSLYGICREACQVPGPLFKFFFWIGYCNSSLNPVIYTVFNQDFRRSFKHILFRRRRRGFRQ
assay_summary: modulators of alpha2C/GIRK thallium flux, primary screen, cell-based, HEK293 alpha2C/GIRK1/2 (AID 624);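 note: slope of fluorescence ratio to pre-addition baseline per second over 15 to 24 s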
recorded_conditions: thallium flux BTC fluorescence, at 10 µM, actives lie on both sides
Rule: slope under 0.005 gives Not fulfilled, otherwise Fulfilled.

> print(dat)
                                    compound  discrete.label
 1  CCCCCCC(C)n1[nH]c(=O)c2c(C)cc(=O)[nH]c21 (stereo unspecified)   Not fulfilled
 2            CCc1nnc(SCC(=O)NC2CCCCC2)nc1CC       Fulfilled
 3  CC1=CCC(C(C)(C)NC(=O)c2ccccc2)C/C1=N\O (stereo unspecified)       Fulfilled
 4  CCN(CC)CCCNC(=O)c1nn(-c2ccc(OC)cc2OC)c(=O)c2ccccc12   Not fulfilled
 5   COc1ccc(S(=O)(=O)Nc2ccc3c(c2)OCO3)cc1Cl   Not fulfilled
 6  OC1(c2cccc(C(F)(F)F)c2)CCN(c2ccc(-c3ccccc3)nn2)CC1       Fulfilled
 7    Cc1ccc(N2CCN(S(=O)(=O)N(C)C)CC2)c(C)c1       Fulfilled
 8        Cc1cc(C)c2c(CC(=O)NCc3ccco3)coc2c1       Fulfilled
 9  CCc1ccc(N(CC(=O)NC2CCCC2)S(=O)(=O)c2c(C)noc2C)cc1       Fulfilled
10  COC(=O)c1ccc(CNC(=O)CSc2nc3sc(C)c(C)c3c(=O)n2C)o1   Not fulfilled
11  Nc1nc2n(n1)C(c1cccc(Br)c1)CC(c1ccc(F)cc1)N2 (stereo unspecified)       Fulfilled
12    Cc1ccc(-c2ccc(SCC(=O)Nc3nonc3C)nn2)cc1       Fulfilled
13  COc1cccc(C2=NOC(C(=O)N3CCN(c4ccccc4)CC3)C2)c1OC (stereo unspecified)       Fulfilled
14  O=C(CN1C(=O)c2ccccc2S1(=O)=O)NCc1ccccc1Cl       Fulfilled
15  COc1ccc(NC(=O)CS(=O)CC(=O)Nc2cc(Cl)ccc2OC)cc1 (stereo unspecified)       Fulfilled
16  CCOC(=O)c1sc2nc(N3CCCC3)c3c(c2c1N)CC(C)(C)OC3   Not fulfilled
17  CN(C(=O)COc1cc(=O)n(C)c2ccccc12)c1ccc(Br)cc1       Fulfilled
18                  CN1CCC(NC(=O)c2cccs2)CC1       Fulfilled
19  CCOC(=O)c1cc2c(=O)n3cccc(C)c3nc2n(CC2CCCO2)c1=NC(C)=O (stereo unspecified)   Not fulfilled
20  Cn1c(C(=O)N2CCCC(C(=O)NCCCc3ccccc3)C2)cc2sccc21 (stereo unspecified)   Not fulfilled
21        O=C(c1ccco1)N1CCN(c2cccc(Cl)c2)CC1   Not fulfilled
22               Cc1[nH]nc2c1C(=O)CC(C)(C)C2       Fulfilled
23    O=S1(=O)N=C(Nc2nc3c(s2)CCCC3)c2ccccc21       Fulfilled
24  CC1=C(C(=O)Nc2ccccc2C)C2(CCCC2)C(C(N)=O)C(=O)N1 (stereo unspecified)       Fulfilled
25  CC(=O)OCC1OC(c2ccccc2)C(OC(C)=O)C(OC(C)=O)C1OC(C)=O (stereo unspecified)       Fulfilled
26  Cc1ccc2nc(NC(=O)CN(C)S(=O)(=O)c3cccc4nsnc34)sc2c1       Fulfilled
27  C(=C\c1ccccc1)/CN1CCN(Cc2ccc3c(c2)OCCO3)CC1       Fulfilled
28            c1ccc(-c2ccc(-c3ccccn3)nn2)nc1       Fulfilled
29  CC1(C)CC(=O)C2=C(C1)OC(=O)C2(NC(=O)c1cccs1)C(F)(F)F (stereo unspecified)       Fulfilled
30                 O=C(CSc1ncccn1)NCc1ccccc1       Fulfilled
31  CCC1CCCCN1C(=O)CSc1nnc(-c2ccco2)o1 (stereo unspecified)   Not fulfilled
32  CCOCCOc1nc2c(c(=O)n(C)c(=O)n2C)n1Cc1ccc(C)cc1       Fulfilled
33      COc1cccc(Oc2cn[nH]c2-c2ccc(O)cc2O)c1   Not fulfilled
34             Cc1csc2nc(CSc3ccc(Cl)cc3)cn12   Not fulfilled
35                 O=C(O)CCc1ccc(-c2cccs2)o1       Fulfilled
36          CCCn1c(-c2ccc(F)cc2)cnc1SCC(=O)O   Not fulfilled
37     Cc1cc(C(=O)NCc2ccc(S(N)(=O)=O)cc2)cs1   Not fulfilled
38  Cc1cc(C)n(-c2nc(C)nc3sc4c(c23)CCC(C)C4)n1 (stereo unspecified)   Not fulfilled
39      O=C(c1c(F)cccc1F)N(Cc1ccccn1)C1CCCC1   Not fulfilled
40  O=C(CN(Cc1ccco1)C(=O)CNS(=O)(=O)c1ccc(F)cc1)NCCc1ccccc1       Fulfilled
41  O=C(CCCCCn1c(=S)[nH]c2cc3c(cc2c1=O)OCO3)N1CCN(Cc2ccccc2)CC1       Fulfilled
42  CCOc1ccc(NC(=O)CN(c2cc(C)cc(C)c2)S(=O)(=O)c2c(C)noc2C)cc1       Fulfilled
43            CCCOc1ccc2ccccc2c1/C=N/n1cnnc1       Fulfilled
44                     Cc1cccc(OCCCC(=O)O)c1   Not fulfilled
45  CCOC(=O)C1=C(C)NC(=O)NC1c1ccc(OCCO)c(OC)c1 (stereo unspecified)       Fulfilled
46  Cc1cccc(-c2cc3nc4c(c(N5CCOCC5)n3n2)CCCC4)c1       Fulfilled
